target-under-test: human FPRL1 (Homo sapiens)
assay: Measurement test of agonist activity on human FPRL1 (test of calcium mobilization in cell, HEK293 with human FPRL1 and Gα15 expression vectors)
condition-info: calcium mobilization in HEK293 cells with human FPRL1 and Gα15 expression vectors
reported-metric: EC50 (nM)
The figure you give is taken to be in nM; do not add the unit.

Form: Entry = COc1cc(F)c([C@@H]2CN/C(=N\OCCO)[C@H]2NC(=O)Nc2ccc(C#N)cc2)c(F)c1 (single isomer, unassigned) | System = human FPRL1 (Homo sapiens) | EC50 = ____
0.25

Requested read-out EC50, target or system human FPRL1 (Homo sapiens), entry COc1cnc([C@@H]2CNC(=O)[C@H]2NC(=O)Nc2ccc(Cl)s2)c(F)c1 (relative stereo)
1.6

Any idea what EC50 came out for COc1ccc(C2CNC(=O)C2NC(=O)Nc2ccc(Cl)cc2)cc1 (single isomer, unassigned; (-)) [Example 12-11] on human FPRL1 (Homo sapiens)?
4.57

# returns recorded EC50 (system: human FPRL1 (Homo sapiens)) for COc1ccc([C@@H]2CNC(=O)[C@H]2NC(=O)Nc2ccc(F)cc2)cc1 (single isomer, unassigned)
0.09

Param readout= EC50; system= human FPRL1 (Homo sapiens); entry= COc1ccc([C@H]2CN(OC)C(=O)[C@@H]2NC(=O)Nc2ccc(F)cc2)cc1 (single isomer, unassigned) ; returns value.
3.14

Could you share what EC50 was measured for COc1cc(F)c([C@@H]2CNC(=O)[C@H]2NC(=O)Nc2ccc(F)cc2)cc1F (single isomer, unassigned) , tested on human FPRL1 (Homo sapiens)?
0.15

###

target-under-test: human FPRL1 (Homo sapiens)
Sequence (P25090 1-351): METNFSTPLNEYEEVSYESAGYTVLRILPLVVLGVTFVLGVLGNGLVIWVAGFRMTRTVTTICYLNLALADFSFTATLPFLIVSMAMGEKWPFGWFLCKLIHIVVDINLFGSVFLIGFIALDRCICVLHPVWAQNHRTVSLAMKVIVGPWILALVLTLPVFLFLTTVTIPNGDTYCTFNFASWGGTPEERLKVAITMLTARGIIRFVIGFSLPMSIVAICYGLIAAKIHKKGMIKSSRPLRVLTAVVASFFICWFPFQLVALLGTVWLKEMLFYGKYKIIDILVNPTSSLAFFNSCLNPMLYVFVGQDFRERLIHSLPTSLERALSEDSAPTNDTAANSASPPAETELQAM
assay: Measurement test of agonist activity on human FPRL1 (test of calcium mobilization in cell, HEK293 with human FPRL1 and Gα15 expression vectors)
condition-info: calcium mobilization in HEK293 cells with human FPRL1 and Gα15 expression vectors
reported-metric: EC50 (pM)
Number in pM, nothing else.

// map COc1cc(F)c([C@@H]2CN(C)C(=O)[C@H]2NC(=O)Nc2ccc(F)cc2)c(F)c1 (relative stereo) [Example 24-1] to recorded EC50 (system: human FPRL1 (Homo sapiens))
90

human FPRL1 (Homo sapiens) / EC50 / COc1cc(F)c([C@@H]2CN/C(=N\OCCO)[C@H]2NC(=O)Nc2cc3ccccc3s2)c(F)c1 (single isomer, unassigned) [EXAMPLE 32-15] : value?
270

What value of EC50 on human FPRL1 (Homo sapiens) does CO/N=C1\NC[C@@H](c2ccc(OC)cc2F)[C@@H]1NC(=O)Nc1ccc(F)cc1 (single isomer, unassigned) [EXAMPLE 32-2] have?
30

# query: EC50 | item COc1ccc(C2CNC(=O)C2NC(=O)Nc2ccc(Cl)cc2)cc1 (single isomer, unassigned; (+)) [Example 12-12] | system: human FPRL1 (Homo sapiens)
900

Missing value: EC50, human FPRL1 (Homo sapiens), entry CO/N=C1\NC[C@@H](c2c(F)cc(OC)cc2F)[C@@H]1NC(=O)Nc1ccc(C)cc1 (single isomer, unassigned) [EXAMPLE 32-8] . Fill in?
440

Recorded EC50 for CO/N=C1\NC[C@@H](c2c(F)cc(OC)cc2F)[C@@H]1NC(=O)Nc1ccc(C#N)cc1 (single isomer, unassigned) [EXAMPLE 32-9] with human FPRL1 (Homo sapiens), please?
300
